assay: chemical genetic growth profiling, strain panel (AID 1159580);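 note: tested at 20 µM; growth read once vehicle control cultures reached saturation at 30 °C; lower values mean less growth of the strain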; conditions: S. cerevisiae deletion strains, growth OD, locus YGR135W, strain pre9
The whole screen tested about 5,500 compounds, of which about 2,000 (36%) were called active. Not shown: some 18% with an inconclusive outcome. Cut-off read from the data, not from the text of the source: active = normalized growth mostly below about 0.91 (no sharp cut-off); inconclusive = no clear call, values can overlap the other calls; inactive = mostly above about 0.92. Some of the results follow.
Labels: active, inactive

{"columns": ["COMPOUND", "QUALITATIVE LABEL"],
 "data": [
  ["CNC1(C)C2CCC(C2)C1(C)C (stereo not drawn)", "inactive"],
  ["COc1ccc(C[C@H]2NC[C@H](O)[C@H]2OC(C)=O)cc1", "active"],
  ["CC1(O)/C=C/C=C(\\CO)C2CC(C)(C)C2(O)CC1 (stereo not drawn)", "inactive"],
  ["COc1c(CC=C(C)C)c2c(c3oc(=O)c(-c4ccc(OC(C)=O)cc4)c(OC(C)=O)c13)C=CC(C)(C)O2", "inactive"],
  ["CC1(C)C2CC[C@]3(C)C(C(=O)C=C4[C@H]5C[C@@](C)(C(=O)O)CC[C@]5(C)CC[C@]43C)[C@@]2(C)CC[C@@H]1O (stereo partly drawn)", "inactive"],
  ["O=c1ccc2ccccc2o1", "inactive"],
  ["COC(=O)C1[C@H]2C[C@H]3c4[nH]c5ccccc5c4CCN3C[C@@H]2CC[C@@H]1O (stereo partly drawn)", "inactive"],
  ["CC(=O)O[C@@](C)(CCC=C(C)C)C1CC=C(C)CC1 (stereo partly drawn)", "inactive"],
  ["CC[C@@H](CO)NCCN[C@@H](CC)CO", "inactive"],
  ["O=C(O)C1C(O)CCC2CN3CCc4c([nH]c5ccccc45)C3CC21 (stereo not drawn)", "inactive"],
  ["C[N+](C)(C)CC(=O)[O-]", "inactive"],
  ["CN1CCc2cc3c(cc2C1O)OCO3 (stereo not drawn)", "inactive"],
  ["CCC(C(=O)O)c1ccccc1 (stereo not drawn)", "inactive"]
]}

These data points were gathered from PubChem BioAssay AID1159580.
